Exercise: state measured pEC50 for each of the molecules provided.
# STUDY_TARGET: human RXFP1 (Homo sapiens)
# EXPERIMENTAL_PROTOCOL: hRXFP1 HEK293 cAMP assay (HTRF)
# REPORTED_CONDITIONS: HEK293 cells stably expressing human RXFP1; 30 min at rt; intracellular cAMP by HTRF
Give bare numbers, as −log10 of the molar value.

Example entries and their recorded answers appear below.
COc1ccc(C2=NOC(C(C)(C)O)C2)cc1C(=O)Nc1c(C(=O)Nc2ccc(F)c(C(F)(F)F)c2)sc2cc(C(F)(F)F)ccc12 (single isomer, unassigned) [Example 257]: 6.78
COc1ccc(N2CCCC(C(=O)O)C2)cc1C(=O)Nc1c(C(=O)Nc2ccc(F)c(C(F)(F)F)c2)sc2cc(C(F)(F)F)ccc12 (single isomer, unassigned) [Example 5]: 6.82
COc1ccc(C2CC3CCC(C2)N3CCS(C)(=O)=O)cc1C(=O)Nc1c(C(=O)Nc2ccc(F)c(C(F)(F)F)c2)sc2cc(C(F)(F)F)ccc12 (stereo not drawn): 6.52
COc1ccc(-c2cc(C(=O)O)ccc2F)cc1C(=O)Nc1c(C(=O)Nc2ccc(F)c(C(F)(F)F)c2)sc2cc(Cl)ncc12: 6.49
COc1ccc(C2=NOC3CC(N)CC23)cc1C(=O)Nc1c(C(=O)Nc2ccc(F)c(C(F)(F)F)c2)sc2cc(C(F)(F)F)ccc12 (single isomer, unassigned): 6.44

Incoming: Give human RXFP1 (Homo sapiens) pEC50 for `COc1ccc(-c2cc(C(=O)O)ccc2F)cc1C(=O)Nc1c(C(=O)Nc2ccc(F)c(C(F)(F)F)c2)sc2cc(C)ccc12`
Outgoing: 5.84

###

# STUDY_TARGET: human RXFP1 (Homo sapiens)
# EXPERIMENTAL_PROTOCOL: hRXFP1 HEK293 cAMP assay (HTRF)
# REPORTED_CONDITIONS: HEK293 cells stably expressing human RXFP1; 30 min at rt; intracellular cAMP by HTRF
pEC50: −log10 of the molar value.
Criterion: pEC50 meeting or surpassing 6. Met: 1. Not met: 0.

COc1ccc(-c2ccc(F)c(C(=O)O)c2)cc1C(=O)Nc1c(C(=O)Nc2ccc(F)c(C(F)(F)F)c2)sc2cc(C(F)(F)F)ccc12 [Example 13]: 1
COc1ccc(C2=NOC(CO)C2)cc1C(=O)Nc1c(C(=O)Nc2ccc(F)c(C(F)(F)F)c2)sc2cc(C(F)(F)F)ccc12 (single isomer, unassigned) [Example 249]: 0
COc1ccc(-c2cccc(C(=O)O)c2F)cc1C(=O)Nc1c(C(=O)Nc2ccc(F)c(C(F)(F)F)c2)sc2cc(C(F)(F)F)ccc12 [Example 14]: 1
COc1ccc(-c2nc(N3CCOCC3)no2)cc1C(=O)Nc1c(C(=O)Nc2ccc(F)c(C(F)(F)F)c2)sc2cc(C(F)(F)F)ccc12 [Example 277]: 1

Turning to the following compound.
Incoming: Confirm if pEC50 reported for the compound COc1ccc(C2CC2C(C)(C)O)cc1C(=O)Nc1c(C(=O)Nc2ccc(F)c(C(F)(F)F)c2)sc2cc(C(F)(F)F)ccc12 (single isomer, unassigned) [Example 160] is 6 or above.
Outgoing: 0

###

Exercise: state measured EC50 for each of the compounds provided.
# STUDY_TARGET: human RXFP1 (Homo sapiens, UniProt Q9HBX9)
# Sequence (Q9HBX9 whole entry): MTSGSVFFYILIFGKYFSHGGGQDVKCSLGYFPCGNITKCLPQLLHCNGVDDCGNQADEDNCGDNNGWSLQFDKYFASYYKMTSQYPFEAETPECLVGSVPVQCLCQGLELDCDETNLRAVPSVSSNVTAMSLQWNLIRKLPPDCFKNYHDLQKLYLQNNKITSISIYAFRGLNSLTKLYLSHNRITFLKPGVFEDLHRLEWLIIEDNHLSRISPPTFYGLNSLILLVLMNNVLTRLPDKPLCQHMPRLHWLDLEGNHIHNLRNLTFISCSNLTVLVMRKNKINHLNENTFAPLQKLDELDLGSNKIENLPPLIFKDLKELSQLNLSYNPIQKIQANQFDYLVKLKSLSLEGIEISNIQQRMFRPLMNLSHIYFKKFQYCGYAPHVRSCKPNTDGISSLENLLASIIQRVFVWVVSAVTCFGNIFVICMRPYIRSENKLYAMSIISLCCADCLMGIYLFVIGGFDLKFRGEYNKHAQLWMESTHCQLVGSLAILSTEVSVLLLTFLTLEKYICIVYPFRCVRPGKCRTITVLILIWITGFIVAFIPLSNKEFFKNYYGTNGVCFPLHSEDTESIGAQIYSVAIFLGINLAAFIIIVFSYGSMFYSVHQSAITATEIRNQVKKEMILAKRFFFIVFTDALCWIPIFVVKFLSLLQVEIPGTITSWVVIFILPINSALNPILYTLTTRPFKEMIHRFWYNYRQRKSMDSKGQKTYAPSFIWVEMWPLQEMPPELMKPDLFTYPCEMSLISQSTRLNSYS
# EXPERIMENTAL_PROTOCOL: hRXFP1 HEK293 cAMP assay (HTRF)
# REPORTED_CONDITIONS: HEK293 cells stably expressing human RXFP1; 30 min at rt; intracellular cAMP by HTRF
Give bare numbers, in µM.

Provide the reported EC50 of each entry below, same order.
1. COc1ccc(C(=O)NCCO)cc1C(=O)Nc1c(C(=O)Nc2ccc(F)c(C(F)(F)F)c2)sc2cc(C(F)(F)F)ccc12 [Example 217]
2. COc1ccc(N2CCCCS2(=O)=O)cc1C(=O)Nc1c(C(=O)Nc2ccc(F)c(C(F)(F)F)c2)sc2cc(C(F)(F)F)ccc12 [Example 10]
3. COc1ccc(C2CCCC(C)(O)C2)cc1C(=O)Nc1c(C(=O)Nc2ccc(F)c(C(F)(F)F)c2)sc2cc(C(F)(F)F)ccc12 (single isomer, unassigned) [Example 35]
4. COc1ccc(C2=NOC3CNCC23)cc1C(=O)Nc1c(C(=O)Nc2ccc(F)c(C(F)(F)F)c2)sc2cc(C(F)(F)F)ccc12 (stereo not drawn) [Example 246]
5. COc1ccc(-n2cc(C(C)(C)O)cn2)cc1C(=O)Nc1c(C(=O)Nc2ccc(F)c(C(F)(F)F)c2)sc2cc(C(F)(F)F)ccc12 [Example 3]
6. COc1ccc(C2CC2C(=O)NCC(C)(C)O)cc1C(=O)Nc1c(C(=O)Nc2ccc(F)c(C(F)(F)F)c2)sc2cc(C(F)(F)F)ccc12 (stereo not drawn) [Example 166]
7. COc1ccc(C2=NOC3(CCN(C(=O)CO)C3)C2)cc1C(=O)Nc1c(C(=O)Nc2ccc(F)c(C(F)(F)F)c2)sc2cc(C(F)(F)F)ccc12 (stereo not drawn) [Example 278]

Outgoing:
[2.29, 0.111, 0.794, 0.724, 0.35, 1.63, 0.408]
